# Tested on: SF-295
# experiment_summary: NCI tumour cell line growth inhibition, 48 h
Activity calls are given as the source filed them. Rule as the data show it: active = GI50 up to about 1.1 µM and inactive = higher.
I'd appreciate it if you could supply GI50 values for the items below.

Qu. Using the record for `Oc1nc2c(c(-c3ccc(Br)cc3)n1)COC/C2=C\c1ccc(Br)cc1` , report its GI50.
Ans. > 50 µM (inactive)

Qu. Same lookup for `C(=C\Nc1ccc(-c2ccccc2)cc1)/C=N/c1ccc(-c2ccccc2)cc1` , please.
Ans. > 100 µM (inactive)

Qu. Same lookup for `COC(=O)/C=C/C1(O)C=CC(=O)C=C1` , please.
Ans. 11 µM (inactive)

Field: GI50. Fill in for each record below.
1. Cc1c2c(C(N)=O)nccc2c(C)c2c1c1ccccc1n2Cc1ccccc1
2. COc1cc(N(Cc2ccc3oc(=O)c(-c4ccccc4)nc3c2)Cc2ccc3oc(=O)c(-c4ccccc4)nc3c2)cc(OC)c1OC
3. O=C(CCN1CCCC1)c1ccc(Oc2ccc(F)cc2)cc1
4. CS(=O)(=O)N(N(CCCl)S(=O)(=O)c1ccccc1)S(C)(=O)=O

Ans.
1: 10.8 µM (inactive); 2: > 10 µM (inactive); 3: 90.2 µM (inactive); 4: 88.9 µM (inactive)

Field: GI50. Fill in for each record below.
1. O=c1ccn(C/C=C/c2ccccc2)c(=S)n1C/C=C/c1ccccc1
2. CC1=C(C(=S)Nc2ccc(Cl)c(C(=O)OC(C)C)c2)SCCO1
3. N#Cc1c(-c2ccc(Cl)cc2)cc(-c2ccc(Nc3ccnc4cc(C(F)(F)F)ccc34)cc2)nc1N

Ans.
1: > 100 µM (inactive); 2: 15.7 µM (inactive); 3: 19.3 µM (inactive)

====

# System: OVCAR-3
# experiment_summary: NCI tumour cell line growth inhibition, 48 h
Activity calls are given as the source filed them. Cut-off read from the data, not from the text of the source: active = GI50 up to about 1.1 µM and inactive = higher.
Respond only with the outcome that fits, drawn from active, inactive

Qu. # fetch the recorded call for CCCCCCCCCCCCCCCC(=O)OCC(C[As](=O)(O)O)OC(=O)CCCCCCCCCCCCCCC (stereo not drawn) here
Ans. inactive

Qu. Same lookup for `C[C@H](CCC(=O)NN)[C@H]1CC[C@H]2[C@@H]3CC[C@@H]4C[C@H](O)CC[C@]4(C)[C@H]3CC[C@]12C` , please.
Ans. inactive

Qu. Same lookup for `COc1ccccc1NCc1cccc2c(=O)c3ccc(Cl)cc3oc12` , please.
Ans. inactive

---
Qu. # fetch the recorded call for `CCOP(=O)(OCC)/C(C#N)=C/c1cccn1N(C)C` here
Ans. inactive

Qu. Same lookup for O=C(CC1OC(O)C(Cl)=C1Cl)c1cccnc1 (stereo not drawn) , please.
Ans. inactive

Qu. Same lookup for `COc1cc(/C=C/C(=N\NC(=S)NN)c2sc(NNC(C)=O)nc2C)ccc1O` , please.
Ans. inactive

Qu. Same lookup for O=C1CC(O)c2c1csc2Br (stereo not drawn) , please.
Ans. inactive

Qu. Same lookup for `CO[C@]12C[C@H](CNC(=O)c3cc(Br)c(Br)[nH]3)O[C@H]1NC(=O)N2` , please.
Ans. inactive

====

# System: SK-OV-3
# experiment_summary: NCI tumour cell line growth inhibition, 48 h
The source made the active and inactive calls. Rule as the data show it: active = GI50 up to about 1.1 µM and inactive = higher.
Respond only with the outcome that fits, drawn from y (active), n (inactive)

Below, 3 compounds whose answers are already recorded.
Qu. # fetch the recorded call for COc1ccc(C2C(Cl)C(=O)N2NC(=O)c2ccc(NC(C)=O)cc2)cc1 (centres undefined) here
Ans. n

Qu. Same lookup for `Cc1cn([C@H]2C[C@@H](N3C(=O)c4ccccc4C3=O)[C@@H](CO[Si](C)(C)C(C)(C)C)O2)c(=O)[nH]c1=O` , please.
Ans. n

Qu. Same lookup for CC(C)(C)C(=O)CC1(O)C=C(O)C(O)(CC(=O)C(C)(C)C)O1 (centres undefined) , please.
Ans. n

From here, focus on the item given below.
Qu. # fetch the recorded call for CC1=C(O)C(=O)C=C2C1=CC=C1[C@@]2(C)CC[C@@]2(C)[C@@H]3C[C@](C)(C(=O)O)CC[C@]3(C)CC[C@]12C [CELASTROL] here
Ans. y
